Listed here: items and their measured pSmad-3, IC50.
system_tested: TGFβ1 (R&D Systems)
Sequence (P01137 279-390): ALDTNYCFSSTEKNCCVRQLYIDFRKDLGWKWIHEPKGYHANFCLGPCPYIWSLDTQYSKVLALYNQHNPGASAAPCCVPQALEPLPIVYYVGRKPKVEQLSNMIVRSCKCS
assay_notes: cell-based or functional assay
value_type: pSmad-3, IC50 (nM)

binder	recorded_value
affinity matured HcLb 261 (antibody, V domains shown, full IgG; constant regions not restated) VH: EVQLVQSGAEVKKPGASVKVSCKTSGYTFMTYWMNWVRQAPGAGLDWMGQIFPAWGSTNYNEMFEGRVTLTADTSTSTAYMELSSLRAGDIAVYYCARGYGNYALDAMDYWGQGTLVTVSS VL: DIVMTQTPPSLSVSPRETASISCRASESVDSYGNSFMHWYLQKPGQSPQLLIYLASNLESGVSDRFSGSGSGTDFTLRISRVEANDTGVYYCQQNNEDPLTFGQ	0.69
affinity matured HcLb 73 (antibody, V domains shown) VH: EVQLVQSGAEVKKPGASVKVSCKTSGYTFITYWMNWVRQAPGAGLDWMGQIFPASGSTNYNEMFEGRVTLTADTSTSTAYMELSSLRAGDIAVYYCARGYGNYALDAMDYWGQGTLVTVSS VL: DIVMTQTPPSLSVSPRETASISCRASESVDSYGNSFMHWYLQKPGQSPQLLIYLASNLESGVSDRFSGSGSGTDFTLRISRVEANDTGVYYCQQNDEDPLTFGQGTK	1.17
affinity matured HcLb 189 (antibody, V domains shown, full IgG; also called canHcLb/S55W/D100Y + canHcLb/237ND/242TS) VH: EVQLVQSGAEVKKPGASVKVSCKTSGYTFITYWMNWVRQAPGAGLDWMGQIFPAWGSTNYNEMFEGRVTLTADTSTSTAYMELSSLRAGDIAVYYCARGYGNYALDAMDYWGQGTLVTVSS VL: DIVMTQTPPSLSVSPRETASISCRASESVDSYGNSFMHWYLQKPGQSPQLLIYLASNLESGVSDRFSGSGSGTDFTLRISRVEANDTGVYYCQQNDEDPLSFGQGTK	2.21
affinity matured HcLb 188 (antibody, V domains shown, full IgG; constant regions not restated) VH: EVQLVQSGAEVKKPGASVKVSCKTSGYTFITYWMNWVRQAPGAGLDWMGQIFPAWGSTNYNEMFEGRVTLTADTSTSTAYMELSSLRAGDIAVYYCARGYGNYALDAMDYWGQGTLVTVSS VL: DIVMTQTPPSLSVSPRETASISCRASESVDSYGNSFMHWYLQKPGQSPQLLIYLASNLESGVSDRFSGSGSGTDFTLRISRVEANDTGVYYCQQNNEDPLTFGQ	2.73
affinity matured HcLb 263 (antibody, V domains shown, full IgG; constant regions not restated) VH: EVQLVQSGAEVKKPGASVKVSCKTSGYIFITYWMNWVRQAPGAGLDWMGQIFPAWGSTNYNEMFEGRVTLTADTSTSTAYMELSSLRAGDIAVYYCARGYGNYALDAMDYWGQGTLVTVSS VL: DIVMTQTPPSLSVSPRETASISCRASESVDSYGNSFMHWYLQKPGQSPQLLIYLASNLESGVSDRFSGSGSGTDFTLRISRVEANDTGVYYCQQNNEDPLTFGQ	1.41
affinity matured HcLb 262 (antibody, V domains shown, full IgG; constant regions not restated) VH: EVQLVQSGAEVKKPGASVKVSCKTSGYTFIKYWMNWVRQAPGAGLDWMGQIFPAWGSTNYNEMFEGRVTLTADTSTSTAYMELSSLRAGDIAVYYCARGYGNYALDAMDYWGQGTLVTVSS VL: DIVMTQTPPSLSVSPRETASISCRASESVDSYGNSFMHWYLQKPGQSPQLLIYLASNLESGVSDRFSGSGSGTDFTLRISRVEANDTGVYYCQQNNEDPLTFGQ	3.16
affinity matured HcLb 187 (antibody, V domains shown) VH: EVQLVQSGAEVKKPGASVKVSCKTSGYTFITYWMNWVRQAPGAGLDWMGQIFPGSGSTNYNEMFEGRVTLTADTSTSTAYMELSSLRAGDIAVYYCARGYGNYALDAMDYWGQGTLVTVSS VL: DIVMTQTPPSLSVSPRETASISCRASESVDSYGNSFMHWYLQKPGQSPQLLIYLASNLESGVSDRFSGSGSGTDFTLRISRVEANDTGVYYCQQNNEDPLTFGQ	0.82
affinity matured HcLb 237 (antibody, V domains shown, full IgG; also called canHcLb/55SW/100DY/57/SV + canHcLb/237ND/242TS) VH: EVQLVQSGAEVKKPGASVKVSCKTSGYTFITYWMNWVRQAPGAGLDWMGQIFPAWGVTNYNEMFEGRVTLTADTSTSTAYMELSSLRAGDIAVYYCARGYGNYALDAMDYWGQGTLVTVSS VL: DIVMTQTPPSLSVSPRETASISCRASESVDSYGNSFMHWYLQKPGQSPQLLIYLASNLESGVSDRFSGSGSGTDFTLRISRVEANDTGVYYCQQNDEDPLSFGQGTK	0.76
affinity matured HcLb 258 (antibody, V domains shown, full IgG; constant regions not restated) VH: EVQLVQSGAEVKKPGASVKVSCKTSGYTFMKYWMNWVRQAPGAGLDWMGQIFPAWGSTNYNEMFEGRVTLTADTSTSTAYMELSSLRAGDIAVYYCARGYGNYALDAMDYWGQGTLVTVSS VL: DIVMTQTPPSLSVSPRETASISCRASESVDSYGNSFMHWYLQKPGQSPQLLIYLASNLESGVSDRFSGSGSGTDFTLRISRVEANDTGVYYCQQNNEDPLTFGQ	0.61
affinity matured HcLb 190 (antibody, V domains shown) VH: EVQLVQSGAEVKKPGASVKVSCKTSGYTFITYWMNWVRQAPGAGLDWMGQIFPGSGSTNYNEMFEGRVTLTADTSTSTAYMELSSLRAGDIAVYYCARGYGNYALDAMDYWGQGTLVTVSS VL: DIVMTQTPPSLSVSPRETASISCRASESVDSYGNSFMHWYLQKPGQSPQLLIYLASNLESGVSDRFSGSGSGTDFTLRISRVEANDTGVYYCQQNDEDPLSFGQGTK	3.26
